# Experiment: Hemolytic activity in human erythrocytes incubated for 1 hr
# Type: toxicity, cell-based, Erythrocyte
Positions of bridges follow the written chain, without caps; N, C: chain ends. Non-standard residues stand in square brackets, D forms with d. Residues, ends and D or L forms follow the SMILES beside them. *: point of attachment. X1 = O[C@H]1[C@H](O)[C@@H](*)OC[C@H]1O; R8 = C=CCCCCCC[C@@](C)(N)C(=O)O; R5 = C=CCCC[C@@](C)(N)C(=O)O; S5 = C=CCCC[C@](C)(N)C(=O)O; Nle = CCCC[C@H](N)C(=O)O
Quick rule for you: HC50 at 1 h under 30 µM gets True, anything else gets False.

See these solved cases before continuing.
# Compound, Class
records = [
    ("CCCC[C@H](NC(=O)[C@H](Cc1cnc[nH]1)NC(=O)[C@H](C)NC(=O)[C@H](CCCC)NC(=O)[C@@H](NC(=O)[C@H](CCCCN)NC(=O)[C@@H]1CCCN1C(=O)[C@]1(C)CCC/C=C/CCCCCC[C@@](C)(NC(=O)[C@H](Cc2ccccc2)NC(=O)CN)C(=O)N[C@@H](CO)C(=O)N[C@@H]([C@@H](C)CC)C(=O)N[C@@H](CC(C)C)C(=O)N[C@@H](CCCCN)C(=O)N[C@@H](CCCCN)C(=O)N[C@@H](C(C)C)C(=O)N1)C(C)C)C(=O)N[C@@H](CCCCN)C(N)=O (H-GF[R8]SILKKV[S5]PKV[Nle]AH[Nle]K-NH2; staple (E) 3-10)", "True"),
    ("CCCC[C@H](NC(=O)[C@H](Cc1cnc[nH]1)NC(=O)[C@H](C)NC(=O)[C@H](CCCC)NC(=O)[C@@H](NC(=O)[C@H](CCCCN)NC(=O)[C@@H]1CCCN1C(=O)[C@]1(C)CCC/C=C\\CCCCCC[C@@](C)(NC(=O)[C@H](Cc2ccccc2)NC(=O)CN)C(=O)N[C@@H](CO)C(=O)N[C@@H]([C@@H](C)CC)C(=O)N[C@@H](CC(C)C)C(=O)N[C@@H](CCCCN)C(=O)N[C@@H](CCCCN)C(=O)N[C@@H](C(C)C)C(=O)N1)C(C)C)C(=O)N[C@@H](CCCCN)C(N)=O (H-GF[R8]SILKKV[S5]PKV[Nle]AH[Nle]K-NH2; staple (Z) 3-10)", "True"),
    ("CCCC[C@H](NC(=O)[C@H](Cc1cnc[nH]1)NC(=O)[C@H](C)NC(=O)[C@H](CCCC)NC(=O)[C@@H](NC(=O)[C@H](CCCCN)NC(=O)[C@@H]1CCCN1C(=O)[C@H](CC(C)C)NC(=O)[C@@]1(C)CCC/C=C\\CCC[C@](C)(NC(=O)[C@H](CO)NC(=O)[C@H](CC(C)C)NC(=O)[C@H](Cc2ccccc2)NC(=O)CN)C(=O)N[C@@H](CC(C)C)C(=O)N[C@@H](CCCCN)C(=O)N[C@@H](CCCCN)C(=O)N1)C(C)C)C(=O)N[C@@H](CCCCN)C(N)=O (H-GFLS[S5]LKK[R5]LPKV[Nle]AH[Nle]K-NH2; staple (Z) 5-9)", "True"),
]

Please indicate whether the reported HC50 at 1 h of CC[C@H](C)[C@H](NC(=O)[C@]1(C)CCC/C=C\CCC[C@](C)(NC(=O)[C@H](CCCCN)NC(=O)[C@H](CCCCN)NC(=O)[C@H](Cc2c[nH]c3ccccc23)NC(=O)[C@H](CC(N)=O)NC(=O)[C@@H](N)C(C)C)C(=O)N[C@@H](CC(C)C)C(=O)NCC(=O)N[C@@H](CCCCN)C(=O)N1)C(=O)N[C@@H](CCCCN)C(=O)N[C@H](C(=O)N[C@H](C(=O)N[C@@H](CCCCN)C(N)=O)C(C)C)C(C)C (H-VNWKK[S5]LGK[S5]IKVVK-NH2; staple (Z) 6-10) is strictly below 30 µM.
False

A record lists CC[C@H](C)[C@H](NC(=O)CN)C(=O)N[C@@H](CCSC)C(=O)N[C@@H](CO[C@H]1OC[C@@H](O)[C@@H](O)[C@@H]1O)C(=O)N[C@@H](CO)C(=O)N[C@@H](CC(C)C)C(=O)N[C@@H](CCSC)C(=O)N[C@@H](CCCCN)C(=O)N[C@@H](CCCCN)C(=O)N[C@@H](CC(C)C)C(=O)N[C@@]1(C)CCC/C=C\CCC[C@@](C)(C(=O)N[C@@H](CCCCN)C(N)=O)NC(=O)[C@H]([C@@H](C)CC)NC(=O)[C@H](Cc2cnc[nH]2)NC(=O)[C@H](C)NC1=O (H-GIMS(X1)SLMKKL[S5]AHI[S5]K-NH2; staple (Z) 11-15) . Is its HC50 at 1 h below 30 µM?
False

Please determine if CCCC[C@H](NC(=O)[C@H](Cc1cnc[nH]1)NC(=O)[C@H](C)NC(=O)[C@H](CCCC)NC(=O)[C@@H](NC(=O)[C@H](CCCCN)NC(=O)[C@@H]1CCCN1C(=O)[C@H](CC(C)C)NC(=O)[C@@H](NC(=O)[C@H](CCCCN)NC(=O)[C@H](CCCCN)NC(=O)[C@H](CC(C)C)NC(=O)[C@@H](NC(=O)[C@H](CO)NC(=O)[C@H](CC(C)C)NC(=O)[C@H](Cc1ccccc1)NC(=O)CN)[C@@H](C)CC)C(C)C)C(C)C)C(=O)N[C@@H](CCCCN)C(N)=O (H-GFLSILKKVLPKV[Nle]AH[Nle]K-NH2) is below 30 µM in terms of HC50 at 1 h.
False

Please state whether HC50 at 1 h is below 30 µM for CC[C@H](C)[C@H](NC(=O)[C@H](CCCCN)NC(=O)[C@H](CCCCN)NC(=O)[C@H](Cc1c[nH]c2ccccc12)NC(=O)[C@H](CC(N)=O)NC(=O)[C@@H](N)C(C)C)C(=O)N[C@@H](CC(C)C)C(=O)NCC(=O)N[C@@H](CCCCN)C(=O)N[C@@]1(C)CCC/C=C\CCC[C@@](C)(C(=O)N[C@@H](CCCCN)C(N)=O)NC(=O)[C@H](C(C)C)NC(=O)[C@H](CCCCN)NC(=O)[C@H]([C@@H](C)CC)NC1=O (H-VNWKKILGK[S5]IKV[S5]K-NH2; staple (Z) 10-14)
False

Is HC50 at 1 h of CC[C@H](C)[C@@H]1NC(=O)[C@H](CCCCN)NC(=O)[C@H](CCCCN)NC(=O)[C@](C)(NC(=O)[C@H](CC(N)=O)NC(=O)[C@@H](N)C(C)C)CCCCCC/C=C/CCC[C@@](C)(C(=O)N[C@H](C(=O)N[C@@H](CCCCN)C(=O)N[C@H](C(=O)N[C@H](C(=O)N[C@@H](CCCCN)C(N)=O)C(C)C)C(C)C)[C@@H](C)CC)NC(=O)[C@H](CCCCN)NC(=O)CNC(=O)[C@H](CC(C)C)NC1=O (H-VN[R8]KKILGK[S5]IKVVK-NH2; staple (E) 3-10) strictly below 30 µM?
False

---

For each record, write down the corresponding HC50 at 1 h.
# Experiment: Hemolytic activity in human erythrocytes incubated for 1 hr
# Type: toxicity, cell-based, Erythrocyte
Positions of bridges follow the written chain, without caps; N, C: chain ends. Non-standard residues stand in square brackets, D forms with d. Residues, ends and D or L forms follow the SMILES beside them. S5 = C=CCCC[C@](C)(N)C(=O)O; Nle = CCCC[C@H](N)C(=O)O
Please state the value followed by its unit.

# Compound, HC50 at 1 h
data = [
    ("CCCC[C@@H]1NC(=O)[C@@](C)(NC(=O)[C@H](CCCCN)NC(=O)[C@@H]2CCCN2C(=O)[C@H](CC(C)C)NC(=O)[C@@H](NC(=O)[C@H](CCCCN)NC(=O)[C@H](CCCCN)NC(=O)[C@H](CC(C)C)NC(=O)[C@@H](NC(=O)[C@H](CO)NC(=O)[C@H](CC(C)C)NC(=O)[C@H](Cc2ccccc2)NC(=O)CN)[C@@H](C)CC)C(C)C)CCC/C=C\\CCC[C@@](C)(C(=O)N[C@@H](CCCCN)C(N)=O)NC(=O)[C@H](Cc2cnc[nH]2)NC(=O)[C@H](C)NC1=O (H-GFLSILKKVLPK[S5][Nle]AH[S5]K-NH2; staple (Z) 13-17)", "18.1 µM"),
]

Proceed to the following item.
Tell us which HC50 at 1 h value is on record for CC[C@H](C)[C@H](NC(=O)[C@H](CCCCN)NC(=O)CNC(=O)[C@H](CC(C)C)NC(=O)[C@]1(C)CCC/C=C\CCC[C@](C)(NC(=O)[C@@H](N)C(C)C)C(=O)N[C@@H](Cc2c[nH]c3ccccc23)C(=O)N[C@@H](CCCCN)C(=O)N[C@@H](CCCCN)C(=O)N1)C(=O)N[C@H](C(=O)N[C@@H](CCCCN)C(=O)N[C@H](C(=O)N[C@H](C(=O)N[C@@H](CCCCN)C(N)=O)C(C)C)C(C)C)[C@@H](C)CC (H-V[S5]WKK[S5]LGKIIKVVK-NH2; staple (Z) 2-6)
30 µM
